# Tested on: human epidermal growth factor receptor (EGFR)
# protocol.notes: Biacore SPR binding kinetics of anti-EGFR scFv-Fc clones with or without 10 µM MTX
# experimental.setup: 0 µM MTX, 37° C., pH 7.4, scFv-Fc
So I've got a bunch of molecules here, and I need their kon, kinetics toward antigen with 0 µM MTX values.

Ask: Form field: reported kon, kinetics toward antigen with 0 µM MTX of P07_H08: anti-EGFR clone with conditional affinity; VH SEQ ID NO: 121, VL SEQ ID NO: 122; also as scFv in CAR (antibody, V domains shown, Synthetic Antibody, also as scFv in CAR) VH: QVQLVESGGGLVQAGGSLRLSCAASRRSSRSWAMHWVRQAPGKGLEWVAVISYDGRLKYYADSVKGRFTISRDNAEYLVYLQMNSLRAEDTAVYYCAAGFDWGWDSSDIYSAMDYWGQGTLVTVSS VL: DIQMTQSPSSLSASVGDRVTITCRASQNIGRYLHWYQQKPGKAPKLLIYSASNLQSGVPSRFSGSGSGTDFTLTISSLQPEDFATYYCQQSYSSPFTFGQGTKVEIK
Result: 330000 M⁻¹ s⁻¹

Ask: Form field: reported kon, kinetics toward antigen with 0 µM MTX of P05_A11: anti-EGFR clone with conditional affinity; VH SEQ ID NO: 133, VL SEQ ID NO: 134; also as scFv in CAR (antibody, V domains shown, Synthetic Antibody, also as scFv in CAR) VH: QVQLVESGGGLVQAGGSLRLSCAASRRSSRSWAMHWVRQAPGKGLEWVAVISYDGRLKYYADSVKGRFTISRDNAEYLVYLQMNSLRAEDTAVYYCAASDDADIFDDYSYGAMDYWGQGTLVTVSS VL: QSVLTQPPSASGTPGQRVTISCSGSSSNIGRNYVYWYQQLPGTAPKLLIYMTSQRPSGVPDRFSGSKSGTSASLAISGLRSEDEADYYCASWDDNLRAWVFGTGTKLTVL
Result: 120000 M⁻¹ s⁻¹

Ask: Form field: reported kon, kinetics toward antigen with 0 µM MTX of P01_F02: anti-EGFR clone with conditional affinity; VH SEQ ID NO: 119, VL SEQ ID NO: 120; also as scFv in CAR (antibody, V domains shown, Synthetic Antibody, also as scFv in CAR) VH: QVQLVESGGGLVQAGGSLRLSCAASRRSSRSWAMHWVRQAPGKGLEWVAVISYDGRLKYYADSVKGRFTISRDNAEYLVYLQMNSLRAEDTAVYYCAADVESALAYGEPYHHMDVWGQGTLVTVSS VL: QSVLTQPPSASGTPGQRVTISCSGSSSNIGRNYVYWYQQLPGTAPKLLIYRTSQRPSGVPDRFSGSKSGTSASLAISGLRSEDEADYYCATWDDSLSGWVFGTGTKLTVL
Result: 61000 M⁻¹ s⁻¹

Ask: Form field: reported kon, kinetics toward antigen with 0 µM MTX of P14_E03: anti-EGFR clone with conditional affinity; VH SEQ ID NO: 125, VL SEQ ID NO: 126 (antibody, V domains shown, Synthetic Antibody) VH: QVQLVESGGGLVQAGGSLRLSCAASRRSSRSWAMHWVRQAPGKGLEWVAVISYDGRLKYYADSVKGRFTISRDNAEYLVYLQMNSLRAEDTAVYYCAAAPRVDWSDVSSGIDYWGQGTLVTVSS VL: QSVLTQPPSASGTPGQRVTISCSGSISNIGTNNVYWYQQLPGTAPKLLIYRNNQRPSGVPDRFSGSKSGTSASLAISGLRSEDEADYYCSAWDDSLSGVVFGTGTKLTVL
Result: 110000 M⁻¹ s⁻¹

Ask: Form field: reported kon, kinetics toward antigen with 0 µM MTX of P01_B06: anti-EGFR reference clone, less than 2-fold MTX effect; VH SEQ ID NO: 129, VL SEQ ID NO: 130 (antibody, V domains shown, Synthetic Antibody) VH: QVQLVESGGGLVQAGGSLRLSCAASRRSSRSWAMHWVRQAPGKGLEWVAVISYDGRLKYYADSVKGRFTISRDNAEYLVYLQMNSLRAEDTAVYYCAADTSMFASYDPMDVWGQGTLVTVSS VL: QSVLTQPPSASGTPGQRVTISCSGSSSNIGRNYVNWYQQLPGTAPKLLIYRDDHRPSGVPDRFSGSKSGTSASLAISGLRSEDEADYYCASWDDTLSGWVFGTGTKLTVL
Result: 100000 M⁻¹ s⁻¹
